Reference source: ChEMBL document CHEMBL2424619

What IC50 was measured for each of the following?
Biological target: E3 ubiquitin-protein ligase UHRF1 (Homo sapiens, UniProt Q96T88)
Sequence (Q96T88 whole entry): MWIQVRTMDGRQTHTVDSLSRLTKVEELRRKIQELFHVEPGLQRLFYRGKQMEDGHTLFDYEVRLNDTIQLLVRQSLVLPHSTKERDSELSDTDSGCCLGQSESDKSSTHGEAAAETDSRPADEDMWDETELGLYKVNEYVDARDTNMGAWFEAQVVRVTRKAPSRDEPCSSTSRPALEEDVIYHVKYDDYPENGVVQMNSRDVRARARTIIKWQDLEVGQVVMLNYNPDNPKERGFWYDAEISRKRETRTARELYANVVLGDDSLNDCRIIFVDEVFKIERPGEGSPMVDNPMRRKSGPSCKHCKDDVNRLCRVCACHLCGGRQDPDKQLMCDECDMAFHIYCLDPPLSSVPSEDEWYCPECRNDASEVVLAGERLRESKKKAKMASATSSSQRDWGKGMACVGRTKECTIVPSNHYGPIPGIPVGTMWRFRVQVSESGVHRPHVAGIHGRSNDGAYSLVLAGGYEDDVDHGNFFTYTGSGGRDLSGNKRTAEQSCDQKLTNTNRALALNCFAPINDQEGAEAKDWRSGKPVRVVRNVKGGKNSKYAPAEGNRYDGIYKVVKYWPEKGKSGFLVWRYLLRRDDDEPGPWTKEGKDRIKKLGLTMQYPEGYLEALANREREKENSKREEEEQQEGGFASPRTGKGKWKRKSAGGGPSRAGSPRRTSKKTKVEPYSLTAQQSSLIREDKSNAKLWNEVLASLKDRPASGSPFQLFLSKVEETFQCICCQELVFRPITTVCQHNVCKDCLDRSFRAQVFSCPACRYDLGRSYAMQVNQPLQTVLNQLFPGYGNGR

Data request: I would be grateful if you could share the reported IC50 for O=C(c1ccc(C(=O)N2CCC(N3CCCC3)CC2)c(Br)c1)N1CCC(N2CCCC2)CC1 .
Data returned: > 10 µM

Data request: I would be grateful if you could share the reported IC50 for CN1CCCC1C1CCN(C(=O)c2ccc(C(=O)N3CCC(C4CCCN4C)CC3)cc2)CC1 (stereo not given) .
Data returned: > 10 µM

Data request: I would be grateful if you could share the reported IC50 for O=C(c1ccc(C(=O)N2CCC3(CCNC3)C2)cc1)N1CCC(N2CCCC2)CC1 (stereo not given) .
Data returned: > 10 µM

Data request: I would be grateful if you could share the reported IC50 for O=C(c1ccc(C(=O)N2CC(N3CCCC3)C2)cc1)N1CCC(N2CCCC2)CC1 .
Data returned: > 10 µM

Data request: I would be grateful if you could share the reported IC50 for O=C(NCCCN1CCCC1)c1ccc(C(=O)N2CCC(N3CCCC3)CC2)cc1 .
Data returned: > 10 µM
